- assayInfo: Blood-brain barrier penetration potential using MDR1-MDCK cell monolayers
- Assay type: in vitro ADME
- conditionParameters: dog, MDCK-MDR1, basolateral dosing, pH 7.4, read-out: Papp B-A × 10^−6 cm/s
readout: Papp B→A at 120 min, 5 µM (×10⁻⁶ cm/s)

Example results:
O=[N+]([O-])c1ccc(-c2cccc(-c3nnn[nH]3)c2)cc1NCc1ccccc1 : 47.4
O=[N+]([O-])c1ccc(-c2ccc(-c3nn[nH]n3)cc2)cc1NCc1ccccc1 : 47.8

[I] NS(=O)(=O)c1cccc(-c2ccc([N+](=O)[O-])c(NCc3ccccc3)c2)c1
[II] O=[N+]([O-])c1ccc(-c2cccc(C(O)C(F)(F)F)c2)cc1NCc1ccccc1 (stereo not shown)
Consider entries I and II . Which has the numerically lower Papp B→A at 120 min, 5 µM? Answer by stating the label of the chosen item.
II

* * *

This listing pairs molecules with measured IC50.
- testSystem: Aβ40 (Homo sapiens)
- Construct: pre-treated Aβ40 (40 μM in 20 mM Tris, pH 7.4)
- assayInfo: Thioflavin T (ThT) Aβ aggregation assay
- conditionParameters: 20 μM Aβ40, 37 degrees C

CCNC(=O)c1cccc(-c2ccc([N+](=O)[O-])c(NCc3ccccc3)c2)c1 : > 50 µM
CN1CCN(C(=O)c2cccc(-c3ccc([N+](=O)[O-])c(NCc4ccccc4)c3)c2)CC1 : 2.67 µM
O=C(c1ccccc1)N1CCN(c2ccc(OC(F)F)c(NCc3ccccc3)c2)CC1 : > 50 µM
O=C(c1ccccc1)N1CCN(c2ccc([N+](=O)[O-])c(N3CCOCC3)c2)CC1 : > 10 µM
O=C(c1ccccc1)N1CCN(c2ccc(OC(F)(F)F)c(NCc3ccccc3)c2)CC1 : > 50 µM

// CC(C)Nc1ccc(N2CCN(C(=O)c3ccccc3)CC2)cc1N1CCCC1 : IC50 value = > 50 µM

// O=C(c1ccccc1)N1CCN(c2ccc(C(F)(F)F)c(N3CCCC3)c2)CC1 : IC50 value = 42 µM

// O=C(c1ccccc1)N1CCN(c2ccc([N+](=O)[O-])c(N3CCCCC3)c2)CC1 : IC50 value = ~10 µM

* * *

- assayInfo: Metabolic stability in mouse liver microsomes
- Format: in vitro ADME
- conditionParameters: 1 μM compound, 0.5 mg/mL microsomal protein, 1 mM NADPH
This listing pairs compounds with measured Stability in mouse liver microsomes (% test compound remaining after 60 min).

Example results:
O=C(c1ccccc1)N1CCN(c2ccc([N+](=O)[O-])c(NC3CC3)c2)CC1 : 1.7%
O=C(c1ccccc1)N1CCN(c2ccc([N+](=O)[O-])c(N3CCCC3)c2)CC1 : <1.0%
O=[N+]([O-])c1ccc(-c2cccc(C(O)C(F)(F)F)c2)cc1NCc1ccccc1 (stereo not shown) : 34%

// O=[N+]([O-])c1ccc(-c2ccc(-c3nn[nH]n3)cc2)cc1NCc1ccccc1 : Stability in mouse liver microsomes (% test compound remaining after 60 min) value = 41%

// CN1CCN(C(=O)c2cccc(-c3ccc([N+](=O)[O-])c(NCc4ccccc4)c3)c2)CC1 : Stability in mouse liver microsomes (% test compound remaining after 60 min) value = <1.0%

// O=[N+]([O-])c1ccc(-c2cccc(CO)c2)cc1NCc1ccccc1 : Stability in mouse liver microsomes (% test compound remaining after 60 min) value = <1.0%

// NS(=O)(=O)c1ccccc1-c1ccc([N+](=O)[O-])c(NCc2ccccc2)c1 : Stability in mouse liver microsomes (% test compound remaining after 60 min) value = <1.0%

// CCN(CC)C(=O)c1cccc(-c2ccc([N+](=O)[O-])c(NCc3ccccc3)c2)c1 : Stability in mouse liver microsomes (% test compound remaining after 60 min) value = <1.0%

// O=C(c1cccc(-c2ccc([N+](=O)[O-])c(NCc3ccccc3)c2)c1)N1CCCC1 : Stability in mouse liver microsomes (% test compound remaining after 60 min) value = <1.0%

// O=C(c1ccccc1)N1CCN(c2ccc(F)c(Nc3ccccc3)c2)CC1 : Stability in mouse liver microsomes (% test compound remaining after 60 min) value = <1.0%

// CC(C)N(C(=O)c1cccc(-c2ccc([N+](=O)[O-])c(NCc3ccccc3)c2)c1)C(C)C : Stability in mouse liver microsomes (% test compound remaining after 60 min) value = <1.0%

// CC(O)c1cccc(-c2ccc([N+](=O)[O-])c(NCc3ccccc3)c2)c1 (stereo not shown) : Stability in mouse liver microsomes (% test compound remaining after 60 min) value = <1.0%

// NS(=O)(=O)c1cccc(-c2ccc([N+](=O)[O-])c(NCc3ccccc3)c2)c1 : Stability in mouse liver microsomes (% test compound remaining after 60 min) value = 1.5%

* * *

- testSystem: Tau441 (Homo sapiens)
- Sequence (P10636 1-441 isoform P10636-8): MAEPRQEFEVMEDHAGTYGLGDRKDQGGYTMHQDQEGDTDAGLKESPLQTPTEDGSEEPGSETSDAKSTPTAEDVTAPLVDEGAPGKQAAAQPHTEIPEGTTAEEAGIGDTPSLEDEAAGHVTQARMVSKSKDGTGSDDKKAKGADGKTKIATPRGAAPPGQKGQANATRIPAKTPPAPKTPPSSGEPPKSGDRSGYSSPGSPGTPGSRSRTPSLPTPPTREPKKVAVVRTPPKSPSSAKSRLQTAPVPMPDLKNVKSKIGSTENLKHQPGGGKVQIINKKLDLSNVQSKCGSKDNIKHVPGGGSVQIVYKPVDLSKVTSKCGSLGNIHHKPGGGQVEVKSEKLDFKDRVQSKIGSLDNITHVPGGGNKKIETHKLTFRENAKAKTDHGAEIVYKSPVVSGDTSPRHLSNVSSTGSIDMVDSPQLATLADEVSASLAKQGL
- assayInfo: Thioflavin S (ThS) tau aggregation assay
- conditionParameters: FIG. 1; read-out: tau aggregation IC50 (suggested by inhibition at 20 μM)
This listing pairs molecules with measured IC50.

O=C(c1ccccc1)N1CCN(c2ccc(C(F)(F)F)c(N3CCCC3)c2)CC1 : > 20 µM

Attention now shifts to the item below.
// O=C(c1ccccc1)N1CCN(c2ccc(F)c(Nc3ccccc3)c2)CC1 : IC50 value = > 20 µM

* * *

- testSystem: Aβ40 (Homo sapiens)
- Construct: pre-treated Aβ40 (40 μM in 20 mM Tris, pH 7.4)
- assayInfo: Thioflavin T (ThT) Aβ aggregation assay
- Type: biochemical
- conditionParameters: 20 μM Aβ40, 37 degrees C
pIC50: −log10 of the molar value.
readout: pIC50

// N#Cc1ccc(-c2cccc(C(=O)O)c2)cc1NCc1ccccc1 : pIC50 value = < 4.30

* * *

- testSystem: Aβ40 (Homo sapiens, UniProt P05067)
- Construct: pre-treated Aβ40 (40 μM in 20 mM Tris, pH 7.4)
- Sequence (P05067 672-711 limits assumed): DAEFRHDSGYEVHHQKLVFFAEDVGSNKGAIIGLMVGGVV
- assayInfo: Thioflavin T (ThT) Aβ aggregation assay
- conditionParameters: 20 μM Aβ40, 37 degrees C
readout: IC50 (µM)

O=[N+]([O-])c1ccc(-c2cccc(C(O)C(F)(F)F)c2)cc1N1CCCC1 (centres unmarked) [TRV 1155] : 6.65
CC(=O)c1cccc(-c2ccc([N+](=O)[O-])c(NCc3ccccc3)c2)c1 [TRV 1124] : 6.49

* * *

- testSystem: Aβ40 (Homo sapiens, UniProt P05067)
- Construct: pre-treated Aβ40 (40 μM in 20 mM Tris, pH 7.4)
- assayInfo: Thioflavin T (ThT) Aβ aggregation assay
- conditionParameters: 20 μM Aβ40, 37 degrees C
- Procedure: Aβ40 (1.0 mg) was pre-treated in a 1.5 mL microfuge tube with HFIP (1 mL) and sonicated for 20 min to disassemble any pre-formed Aβ aggregates. The HFIP was removed with a stream of argon and the Aβ dissolved in Tris base (5.8 mL, 20 mM, pH ˜10). […] The kinetic ThT assay for Aβ aggregation is similar to that of Chalifour et al (Chalifour et al, 2003, J. Biol. Chem. 278:34874-81). […] Plates were covered with clear polystyrene lids and incubated at 37 degrees C. in a Tecan Genios microplate reader. […]
readout: IC50 (µM)

O=[N+]([O-])c1ccc(-c2cccc(CO)c2)cc1NCc1ccccc1 [TRV 1147] : 3.54
O=[N+]([O-])c1ccc(-c2ccccc2-c2nnn[nH]2)cc1NCc1ccccc1 [TRV 1125] : 12.5
CN(C)C(=O)C1CCCN(c2ccc([N+](=O)[O-])c(NCc3ccccc3)c2)C1 (centres unmarked) [TRV 1132] : 11.5

[P] O=C(c1ccccc1)N1CCN(c2ccc(F)c(Nc3ccccc3)c2)CC1 [TRV 1095]
[Q] CN(C)C(=O)C1CCN(c2ccc([N+](=O)[O-])c(NCc3ccccc3)c2)CC1 [TRV 1134]
[R] CC(O)c1cccc(-c2ccc([N+](=O)[O-])c(NCc3ccccc3)c2)c1 (centres unmarked) [TRV 1129]
// sort entries: IC50, high to low Put the labels in the order asked and list them.
P, Q, R
(P: 15.9 µM, Q: 10.7 µM, R: 6.49 µM)

* * *

- assayInfo: Blood-brain barrier penetration potential using MDR1-MDCK cell monolayers
- Assay type: in vitro ADME
- conditionParameters: dog, MDCK-MDR1, pH 7.4, read-out: Efflux ratio (Papp B-A)/(Papp A-B)
readout: efflux ratio at 120 min, 5 µM

Example results:
O=[N+]([O-])c1ccc(-c2ccc(-c3nn[nH]n3)cc2)cc1NCc1ccccc1 [TRV 1126] : 1.4
O=[N+]([O-])c1ccc(-c2cccc(-c3nnn[nH]3)c2)cc1NCc1ccccc1 [TRV 1120] : 1.2

[I] NS(=O)(=O)c1cccc(-c2ccc([N+](=O)[O-])c(NCc3ccccc3)c2)c1 [TRV 1122]
[II] O=[N+]([O-])c1ccc(-c2cccc(C(O)C(F)(F)F)c2)cc1NCc1ccccc1 (stereo not shown) [TRV 1140]
Consider entries I and II . Which has the numerically lower efflux ratio at 120 min, 5 µM? Answer by stating the label of the chosen item.
II
(II: 0.8, I: 1.9)
